Sourced from patent US10364247B2

# GI50 annotations
Molecular target: BaF3-EML4-ALK (Homo sapiens, UniProt Q9UM73)
Construct: fused on or other part: Q9HC35 (Echinoderm microtubule-associated protein-like 4)
Sequence (Q9UM73 whole entry, change not shown, the tested form may be a part): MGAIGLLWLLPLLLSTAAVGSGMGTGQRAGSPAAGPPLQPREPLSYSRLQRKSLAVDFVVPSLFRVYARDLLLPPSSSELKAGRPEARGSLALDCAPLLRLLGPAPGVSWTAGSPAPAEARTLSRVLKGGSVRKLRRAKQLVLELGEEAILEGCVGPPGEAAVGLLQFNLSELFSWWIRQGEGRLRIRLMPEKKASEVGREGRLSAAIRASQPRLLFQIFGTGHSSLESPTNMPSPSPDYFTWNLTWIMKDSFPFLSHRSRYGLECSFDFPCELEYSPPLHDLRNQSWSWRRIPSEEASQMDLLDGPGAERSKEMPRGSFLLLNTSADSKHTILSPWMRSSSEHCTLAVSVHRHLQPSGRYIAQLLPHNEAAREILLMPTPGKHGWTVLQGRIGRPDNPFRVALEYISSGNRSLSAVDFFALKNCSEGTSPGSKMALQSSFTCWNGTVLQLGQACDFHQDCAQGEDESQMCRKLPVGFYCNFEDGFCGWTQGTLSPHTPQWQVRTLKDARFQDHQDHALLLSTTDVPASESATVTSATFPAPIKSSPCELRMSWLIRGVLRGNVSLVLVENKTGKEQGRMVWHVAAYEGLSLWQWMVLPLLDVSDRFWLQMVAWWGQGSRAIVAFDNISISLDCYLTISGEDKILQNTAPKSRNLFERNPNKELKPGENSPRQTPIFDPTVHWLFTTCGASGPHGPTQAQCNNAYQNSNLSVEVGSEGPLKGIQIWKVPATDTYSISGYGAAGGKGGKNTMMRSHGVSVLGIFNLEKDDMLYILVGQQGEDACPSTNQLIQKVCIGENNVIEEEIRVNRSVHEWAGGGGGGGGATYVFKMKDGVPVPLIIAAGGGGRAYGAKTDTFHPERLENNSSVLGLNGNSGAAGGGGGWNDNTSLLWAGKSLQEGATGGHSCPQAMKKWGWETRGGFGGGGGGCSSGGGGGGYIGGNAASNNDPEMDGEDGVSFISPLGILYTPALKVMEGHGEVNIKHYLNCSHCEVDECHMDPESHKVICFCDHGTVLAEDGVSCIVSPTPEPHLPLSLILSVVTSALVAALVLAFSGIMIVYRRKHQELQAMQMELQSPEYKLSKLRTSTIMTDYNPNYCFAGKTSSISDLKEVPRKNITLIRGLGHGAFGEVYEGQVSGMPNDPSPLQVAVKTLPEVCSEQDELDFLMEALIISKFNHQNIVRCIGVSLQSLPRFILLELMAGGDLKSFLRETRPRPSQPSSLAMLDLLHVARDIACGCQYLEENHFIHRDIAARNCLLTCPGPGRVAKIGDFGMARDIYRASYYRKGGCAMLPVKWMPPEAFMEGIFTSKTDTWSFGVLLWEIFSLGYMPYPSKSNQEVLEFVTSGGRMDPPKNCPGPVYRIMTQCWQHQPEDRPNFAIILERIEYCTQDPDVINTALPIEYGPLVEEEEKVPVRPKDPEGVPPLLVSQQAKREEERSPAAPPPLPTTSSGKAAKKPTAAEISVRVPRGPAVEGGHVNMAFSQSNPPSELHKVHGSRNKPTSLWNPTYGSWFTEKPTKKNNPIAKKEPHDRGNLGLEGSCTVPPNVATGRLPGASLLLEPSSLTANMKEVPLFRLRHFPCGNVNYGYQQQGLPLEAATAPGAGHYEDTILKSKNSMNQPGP
Experiment: Antiproliferative activity, kinase-dependent Ba/F3 cells (MTT/MTS)
Assay type: cell-based, murine
Settings: 48 hours, cell viability, read-out: EML4-ALK IC50
Experimental: Following up on the kinome data, the ability of compounds disclosed in the present invention to inhibit proliferation of cells that are dependent on selected protein kinases was tested. […] The background control wells to which media with no cells added and the vehicle control wells were included on each plate in triplicate. Cell viability was determined using MTT (Sigma, St. Louis, Mo., USA) and MTS (Promega, Madison, Wis., USA), according to the manufacturer's instructions. […]
// return numeric value only (unit: µM, not printed)

In the examples that follow, each entry is paired with its recorded GI50.
| smiles-string | target-entity | GI50 (µM) |
| --- | --- | --- |
| Cc1ccc(Nc2ncc3c(n2)N(C2CC2)CN(c2cc(NC(=O)c4cccc(C(F)(F)F)c4)ccc2C)C3)cn1 | BaF3-EML4-ALK (Homo sapiens, UniProt Q9UM73) | 3.13 |
| CN1CN(c2ccc(Br)cc2F)Cc2cnc(Nc3ccc(N4CCOCC4)nc3)nc21 | BaF3-EML4-ALK (Homo sapiens, UniProt Q9UM73) | 20 |
| Cc1ccc(Nc2ncc3c(n2)N(C)CN(c2cc(NC(=O)c4cccc(C(F)(F)F)c4)ccc2Cl)C3)cn1 | BaF3-EML4-ALK (Homo sapiens, UniProt Q9UM73) | 9.73 |
| Cc1ccc(NC(=O)c2cccc(C(F)(F)F)c2)cc1N1Cc2cnc(N[C@H](C)CO)nc2N(C)C1 | BaF3-EML4-ALK (Homo sapiens, UniProt Q9UM73) | 7.47 |

Let's switch to this compound now.
Which GI50 value is on record for Cc1ccc(C(F)(F)F)cc1N1Cc2cnc(Nc3ccc(N4CCOCC4)nc3)nc2N(C)C1 ?
8.24

====

Documented GI50 across a set of molecules
Target: BaF3-BCR/ABL-T315I (Homo sapiens, UniProt P00519, T315I, cells depend on it)
Construct: fused on or other part: P11274 (Breakpoint cluster region protein)
Experiment: Antiproliferative activity, kinase-dependent Ba/F3 cells (MTT/MTS)
Assay type: cell-based, murine
Conditions: 48 hours, cell viability, read-out: BCR/ABL T315I IC50

Below are worked cases with known answers.
| molecule | result |
| --- | --- |
| Cc1ccc(Nc2ncc3c(n2)N(C)CN(c2cccc(NC(=O)c4cccc(C(F)(F)F)c4)c2)C3)cn1 [IC-5] | > 10 µM |
| Cc1ccc(Nc2ncc3c(n2)N(C)CN(c2cc(NC(=O)c4cccc(C(F)(F)F)c4)ccc2Cl)C3)cn1 [IC-7] | > 10 µM |
| Cc1ccc(NC(=O)c2cccc(C(F)(F)F)c2)cc1N1Cc2cnc(NC3CCN(C)CC3)nc2N(C)C1 [IA-1] | 4.15 µM |

Read the next record carefully.
Notebook: pull reported GI50 for BaF3-BCR/ABL-T315I (Homo sapiens, UniProt P00519, T315I, cells depend on it), entry Cc1ccc(Nc2ncc3c(n2)N(C2CCCC2)CN(c2cc(NC(=O)c4cccc(C(F)(F)F)c4)ccc2C)C3)cn1 [IB-3]
9.23 µM

====

Target: BaF3-TEL-INSR (Homo sapiens)
Construct: fused on or other part: P41212 (Transcription factor ETV6)
Sequence (P06213 whole entry, stated change not applied, the tested form may be a part): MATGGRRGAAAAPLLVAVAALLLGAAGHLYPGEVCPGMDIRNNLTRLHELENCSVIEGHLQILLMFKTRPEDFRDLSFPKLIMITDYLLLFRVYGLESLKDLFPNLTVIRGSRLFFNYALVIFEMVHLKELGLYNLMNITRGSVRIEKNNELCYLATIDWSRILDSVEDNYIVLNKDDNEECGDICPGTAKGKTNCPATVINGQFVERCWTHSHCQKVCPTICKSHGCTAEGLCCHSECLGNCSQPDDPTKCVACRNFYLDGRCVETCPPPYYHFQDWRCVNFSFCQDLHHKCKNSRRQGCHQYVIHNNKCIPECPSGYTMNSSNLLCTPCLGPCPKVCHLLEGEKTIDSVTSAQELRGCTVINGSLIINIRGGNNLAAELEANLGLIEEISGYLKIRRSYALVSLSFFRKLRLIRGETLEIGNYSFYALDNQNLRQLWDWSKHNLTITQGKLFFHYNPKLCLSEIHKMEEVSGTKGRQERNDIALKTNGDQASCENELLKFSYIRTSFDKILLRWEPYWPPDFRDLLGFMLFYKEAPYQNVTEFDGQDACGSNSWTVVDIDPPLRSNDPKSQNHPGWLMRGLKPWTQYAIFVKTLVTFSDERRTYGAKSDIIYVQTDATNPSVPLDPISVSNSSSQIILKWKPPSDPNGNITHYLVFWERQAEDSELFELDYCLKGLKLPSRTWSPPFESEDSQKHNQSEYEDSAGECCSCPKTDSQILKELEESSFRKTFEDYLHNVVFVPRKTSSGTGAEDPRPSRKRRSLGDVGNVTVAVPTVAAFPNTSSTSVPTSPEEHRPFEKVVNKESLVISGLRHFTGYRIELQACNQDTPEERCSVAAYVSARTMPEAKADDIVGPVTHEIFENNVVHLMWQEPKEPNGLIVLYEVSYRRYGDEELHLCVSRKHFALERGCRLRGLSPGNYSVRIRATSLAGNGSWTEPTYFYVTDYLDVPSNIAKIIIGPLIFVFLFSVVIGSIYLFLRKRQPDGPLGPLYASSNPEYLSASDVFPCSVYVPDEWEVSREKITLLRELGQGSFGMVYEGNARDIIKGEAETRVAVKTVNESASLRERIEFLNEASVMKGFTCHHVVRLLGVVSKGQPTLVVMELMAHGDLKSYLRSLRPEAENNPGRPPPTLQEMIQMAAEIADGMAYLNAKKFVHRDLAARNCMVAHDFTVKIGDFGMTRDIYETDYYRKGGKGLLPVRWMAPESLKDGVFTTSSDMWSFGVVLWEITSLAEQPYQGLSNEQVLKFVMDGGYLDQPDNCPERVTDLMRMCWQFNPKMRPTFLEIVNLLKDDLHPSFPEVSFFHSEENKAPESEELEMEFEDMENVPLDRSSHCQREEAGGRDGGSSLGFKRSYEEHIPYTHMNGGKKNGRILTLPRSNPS
Assay: Antiproliferative activity, kinase-dependent Ba/F3 cells (MTT/MTS)
Format: cell-based, murine
Conditions: 48 hours, cell viability, read-out: Tel-INSR IC50
// reported GI50 per item
Your answer should be a plain number; it is taken to be in nM.

| molecule | measured-metric | readout-number |
| --- | --- | --- |
| CCN(CC)c1ccc(Nc2ncc3c(n2)N(C)CN(c2cc(NC(=O)c4cccc(C(F)(F)F)c4)ccc2C)C3)cn1 [IA-12] | GI50 | 977 |
| Cc1ccc(NC(=O)c2cccc(C(F)(F)F)c2)cc1N1Cc2cnc(NCCN(C)C)nc2N(C)C1 [IA-2] | GI50 | 1330 |
| Cc1ccc(NC(=O)c2cccc(C(F)(F)F)c2)cc1N1Cc2cnc(Nc3ccc(N4CCOCC4)nc3)nc2N(C)C1 [IA-15] | GI50 | 902 |

Under BaF3-TEL-INSR (Homo sapiens): GI50 value of Cc1ccc(Nc2ncc3c(n2)N(C2CC2)CN(c2cc(NC(=O)c4cccc(C(F)(F)F)c4)ccc2C)C3)cn1 [IB-2] ?
2160

Similarly, COc1cc(C(=O)N2CCN(C)CC2)ccc1Nc1ncc2c(n1)N(C)CN(c1cc(NC(=O)c3cccc(C(F)(F)F)c3)ccc1C)C2 [IA-16] ?
3960

====

Target: BaF3-BCR/ABL-T315I (Homo sapiens, UniProt P00519, T315I, cells depend on it)
Construct: fused on or other part: P11274 (Breakpoint cluster region protein)
Assay: Antiproliferative activity, kinase-dependent Ba/F3 cells (MTT/MTS)
Type: cell-based, murine
Details: 48 hours, cell viability, read-out: BCR/ABL T315I IC50
Recorded GI50 by entry
Give the value, in units of nM, as a plain number.

Take a look at these entries with their results.
| smiles-string | GI50 [nM] |
| --- | --- |
| Cc1ccc(Nc2ncc3c(n2)N(C)CN(c2cc(NC(=O)c4cccc(C(F)(F)F)c4)ccc2C)C3)cn1 | 651 |
| Cc1ccc(NC(=O)c2cccc(C(F)(F)F)c2)cc1N1Cc2cnc(NC3CC3)nc2N(C)C1 | 9720 |
| Cc1ccc(NC(=O)c2cccc(C(F)(F)F)c2)cc1N1Cc2cnc(NCCN3CCOCC3)nc2N(C)C1 | 2920 |
| COc1cc(C(=O)N2CCN(C)CC2)ccc1Nc1ncc2c(n1)N(C)CN(c1cc(NC(=O)c3cccc(C(F)(F)F)c3)ccc1C)C2 | 4370 |
| Cc1cc(Nc2ncc3c(n2)N(C)CN(c2cc(NC(=O)c4cccc(C(F)(F)F)c4)ccc2C)C3)n(C)n1 | 1760 |

API: the following record is the query input.
State the recorded GI50 for this entry: Cc1ccc(Nc2ncc3c(n2)N(C)CN(c2cc(C(=O)Nc4cccc(C(F)(F)F)c4)ccc2C)C3)cn1
196

====

Biological target: BaF3-TEL-TIE1 (Homo sapiens, UniProt P35590)
Construct: fused on or other part: P41212 (Transcription factor ETV6)
Sequence (P35590 whole entry, change not shown, the tested form may be a part): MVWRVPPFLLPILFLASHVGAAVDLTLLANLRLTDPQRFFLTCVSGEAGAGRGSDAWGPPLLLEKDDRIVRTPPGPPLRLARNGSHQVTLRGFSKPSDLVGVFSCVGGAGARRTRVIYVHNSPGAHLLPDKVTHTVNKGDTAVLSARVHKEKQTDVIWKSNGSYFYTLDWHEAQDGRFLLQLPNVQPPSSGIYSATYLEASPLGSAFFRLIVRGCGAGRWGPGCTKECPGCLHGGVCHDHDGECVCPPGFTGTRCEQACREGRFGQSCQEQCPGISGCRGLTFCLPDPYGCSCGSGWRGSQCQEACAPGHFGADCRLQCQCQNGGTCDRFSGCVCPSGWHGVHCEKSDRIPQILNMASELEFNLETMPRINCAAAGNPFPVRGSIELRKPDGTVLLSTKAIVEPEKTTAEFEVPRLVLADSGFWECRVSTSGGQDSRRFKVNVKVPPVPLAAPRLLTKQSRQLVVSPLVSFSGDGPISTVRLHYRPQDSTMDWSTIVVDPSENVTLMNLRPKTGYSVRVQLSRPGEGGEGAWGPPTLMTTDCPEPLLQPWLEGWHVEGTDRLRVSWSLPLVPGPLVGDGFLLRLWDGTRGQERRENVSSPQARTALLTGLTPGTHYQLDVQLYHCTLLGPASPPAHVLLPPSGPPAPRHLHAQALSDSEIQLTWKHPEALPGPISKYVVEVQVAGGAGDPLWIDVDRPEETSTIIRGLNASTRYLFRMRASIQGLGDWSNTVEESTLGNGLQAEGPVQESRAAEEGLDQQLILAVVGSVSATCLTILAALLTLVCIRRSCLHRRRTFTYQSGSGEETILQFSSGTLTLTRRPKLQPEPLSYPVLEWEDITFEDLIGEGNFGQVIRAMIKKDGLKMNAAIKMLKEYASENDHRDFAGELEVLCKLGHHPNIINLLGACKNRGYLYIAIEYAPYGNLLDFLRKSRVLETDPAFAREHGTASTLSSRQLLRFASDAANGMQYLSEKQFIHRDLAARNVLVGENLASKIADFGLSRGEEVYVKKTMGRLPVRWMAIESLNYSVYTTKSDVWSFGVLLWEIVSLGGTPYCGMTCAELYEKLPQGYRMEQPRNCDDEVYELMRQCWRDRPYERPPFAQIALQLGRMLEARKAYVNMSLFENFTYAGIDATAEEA
Assay: Antiproliferative activity, kinase-dependent Ba/F3 cells (MTT/MTS)
Type: cell-based, murine
Details: 48 hours, cell viability, read-out: tel-TIE1 IC50
measured-metric: GI50 (µM)
// note: answer is a bare numeric in µM

Please review the following examples before continuing.
| smiles-string | readout-number |
| --- | --- |
| Cc1ccc(NC(=O)c2cccc(C(F)(F)F)c2)cc1N1Cc2cnc(N[C@H](C)CO)nc2N(C)C1 | 4.22 |
| Cc1ccc(NC(=O)c2cccc(C(F)(F)F)c2)cc1N1Cc2cnc(NCCN3CCOCC3)nc2N(C)C1 | 3.24 |
| CCN1CN(c2cc(NC(=O)c3cccc(C(F)(F)F)c3)ccc2C)Cc2cnc(Nc3ccc(C)nc3)nc21 | 1.29 |

Shift focus to the following entry.
For the molecule shown here, Cc1ccc(Nc2ncc3c(n2)N(C2CC2)CN(c2cc(NC(=O)c4cccc(C(F)(F)F)c4)ccc2C)C3)cn1 , give the reported GI50.
1.09

====

Molecular target: BaF3-TEL-LYN (Homo sapiens)
Construct: fused on or other part: P41212 (Transcription factor ETV6)
Sequence (P07948 whole entry, change not shown, the tested form may be a part): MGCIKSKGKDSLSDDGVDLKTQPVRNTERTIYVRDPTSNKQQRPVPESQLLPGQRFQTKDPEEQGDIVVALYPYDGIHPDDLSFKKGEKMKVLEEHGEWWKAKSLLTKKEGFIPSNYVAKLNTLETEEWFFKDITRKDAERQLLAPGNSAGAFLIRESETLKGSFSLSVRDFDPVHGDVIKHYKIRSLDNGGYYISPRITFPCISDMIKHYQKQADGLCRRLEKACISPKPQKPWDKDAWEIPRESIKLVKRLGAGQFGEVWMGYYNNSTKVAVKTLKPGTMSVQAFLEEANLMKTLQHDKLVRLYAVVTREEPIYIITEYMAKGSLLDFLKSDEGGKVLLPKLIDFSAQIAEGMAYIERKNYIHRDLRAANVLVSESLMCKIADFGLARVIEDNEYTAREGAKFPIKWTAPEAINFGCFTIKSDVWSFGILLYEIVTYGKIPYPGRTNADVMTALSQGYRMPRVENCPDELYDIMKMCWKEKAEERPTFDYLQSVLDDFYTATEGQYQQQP
Assay: Antiproliferative activity, kinase-dependent Ba/F3 cells (MTT/MTS)
Format: cell-based, murine
Conditions: 48 hours, cell viability, read-out: tel-LYN IC50
measured-metric: GI50 (nM)
Reply with just the number (in nM).

| smiles-string | GI50, nM |
| --- | --- |
| CCN1CN(c2cc(NC(=O)c3cccc(C(F)(F)F)c3)ccc2C)Cc2cnc(Nc3ccc(C)nc3)nc21 | 1260 |
| Cc1ccc(Nc2ncc3c(n2)N(C2CCCC2)CN(c2cc(NC(=O)c4cccc(C(F)(F)F)c4)ccc2C)C3)cn1 | 3300 |
| Cc1ccc(Nc2ncc3c(n2)N(C)CN(c2cc(NC(=O)c4cccc(C(F)(F)F)c4)ccc2Cl)C3)cn1 | 5340 |

Now for another entry.
For the compound shown here, Cc1ccc(NC(=O)c2cccc(C(F)(F)F)c2)cc1N1Cc2cnc(N[C@@H](C)CO)nc2N(C)C1 , give the reported GI50.
2500

====

Molecular target: BaF3-BCR/ABL-T315I (Homo sapiens, UniProt P00519, T315I, cells depend on it)
Construct: fused on or other part: P11274 (Breakpoint cluster region protein)
Assay: Antiproliferative activity, kinase-dependent Ba/F3 cells (MTT/MTS)
Format: cell-based, murine
Conditions: 48 hours, cell viability, read-out: BCR/ABL T315I IC50
measured-metric: GI50

# annotated cases, reported GI50 shown
| smiles-string | GI50 |
| --- | --- |
| CN1CN(c2ccc(Cl)c(C(F)(F)F)c2)Cc2cnc(Nc3ccc(N4CCOCC4)nc3)nc21 | > 10 µM |
| Cc1ccc(NC(=O)c2cccc(C(F)(F)F)c2)cc1N1Cc2cnc(Nc3ccc(N4CCOCC4)nc3)nc2N(C)C1 | 0.132 µM |
| CN1CN(c2ccc(Br)cc2F)Cc2cnc(Nc3ccc(N4CCOCC4)nc3)nc21 | > 10 µM |
| Cc1ccc(Nc2ncc3c(n2)N(C2CC2)CN(c2cc(NC(=O)c4cccc(C(F)(F)F)c4)ccc2C)C3)cn1 | 2.9 µM |
| CNc1ncc2c(n1)N(C)CN(c1cc(NC(=O)c3cccc(C(F)(F)F)c3)ccc1C)C2 | > 10 µM |

Now turn to the next molecule.
Value wanted: GI50 (BaF3-BCR/ABL-T315I (Homo sapiens, UniProt P00519, T315I, cells depend on it)) of entry Cc1ccc(N)cc1N1Cc2cnc(Nc3ccc(N4CCOCC4)nc3)nc2N(C)C1
> 10 µM
